assay: amyloid nucleation score (Sup35N fusion, yeast selection) (log enrichment); library NNK3; higher = more nucleation; inactive = no reads after selection;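 further: zero at mode of non-aggregating sequences after 7 days selection at 30°C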
quantity name: amyloid nucleation score

// solved cases for amyloid nucleation score follow
{"substance": "FYDLFN", "amyloid nucleation score": "inactive"}
{"substance": "SWVTDWIL", "amyloid nucleation score": "inactive"}
{"substance": "GVYVWFAALNNPTVEGFLNS", "amyloid nucleation score": "inactive"}
{"substance": "GVLEAFLTDIIPMYGYVRVA", "amyloid nucleation score": "inactive"}
{"substance": "PAQSQAYVLKAGGPRLDGRV", "amyloid nucleation score": "inactive"}

Task: What amyloid nucleation score value was documented for this substance, HCLSHTLQHNHTMISANSRS ?
Result: inactive

Task: And for QPVICNIRSSRCV ?
Result: inactive

Task: Repeat for the following substance: GSLYFSCINPM
Result: inactive

Task: Can you check SVRRHSSGCMNNAL next?
Result: inactive
